- assayed-target: SMARCA4 (Homo sapiens, UniProt P51532)
- Construct: SMARCA4-HiBiT knock-in Hela monoclonal cell (CS3023226); host or cells: HeLa monoclonal cells with heterozygous HiBiT knock-in at the endogenous SMARCA4 locus
- Sequence (P51532 whole entry): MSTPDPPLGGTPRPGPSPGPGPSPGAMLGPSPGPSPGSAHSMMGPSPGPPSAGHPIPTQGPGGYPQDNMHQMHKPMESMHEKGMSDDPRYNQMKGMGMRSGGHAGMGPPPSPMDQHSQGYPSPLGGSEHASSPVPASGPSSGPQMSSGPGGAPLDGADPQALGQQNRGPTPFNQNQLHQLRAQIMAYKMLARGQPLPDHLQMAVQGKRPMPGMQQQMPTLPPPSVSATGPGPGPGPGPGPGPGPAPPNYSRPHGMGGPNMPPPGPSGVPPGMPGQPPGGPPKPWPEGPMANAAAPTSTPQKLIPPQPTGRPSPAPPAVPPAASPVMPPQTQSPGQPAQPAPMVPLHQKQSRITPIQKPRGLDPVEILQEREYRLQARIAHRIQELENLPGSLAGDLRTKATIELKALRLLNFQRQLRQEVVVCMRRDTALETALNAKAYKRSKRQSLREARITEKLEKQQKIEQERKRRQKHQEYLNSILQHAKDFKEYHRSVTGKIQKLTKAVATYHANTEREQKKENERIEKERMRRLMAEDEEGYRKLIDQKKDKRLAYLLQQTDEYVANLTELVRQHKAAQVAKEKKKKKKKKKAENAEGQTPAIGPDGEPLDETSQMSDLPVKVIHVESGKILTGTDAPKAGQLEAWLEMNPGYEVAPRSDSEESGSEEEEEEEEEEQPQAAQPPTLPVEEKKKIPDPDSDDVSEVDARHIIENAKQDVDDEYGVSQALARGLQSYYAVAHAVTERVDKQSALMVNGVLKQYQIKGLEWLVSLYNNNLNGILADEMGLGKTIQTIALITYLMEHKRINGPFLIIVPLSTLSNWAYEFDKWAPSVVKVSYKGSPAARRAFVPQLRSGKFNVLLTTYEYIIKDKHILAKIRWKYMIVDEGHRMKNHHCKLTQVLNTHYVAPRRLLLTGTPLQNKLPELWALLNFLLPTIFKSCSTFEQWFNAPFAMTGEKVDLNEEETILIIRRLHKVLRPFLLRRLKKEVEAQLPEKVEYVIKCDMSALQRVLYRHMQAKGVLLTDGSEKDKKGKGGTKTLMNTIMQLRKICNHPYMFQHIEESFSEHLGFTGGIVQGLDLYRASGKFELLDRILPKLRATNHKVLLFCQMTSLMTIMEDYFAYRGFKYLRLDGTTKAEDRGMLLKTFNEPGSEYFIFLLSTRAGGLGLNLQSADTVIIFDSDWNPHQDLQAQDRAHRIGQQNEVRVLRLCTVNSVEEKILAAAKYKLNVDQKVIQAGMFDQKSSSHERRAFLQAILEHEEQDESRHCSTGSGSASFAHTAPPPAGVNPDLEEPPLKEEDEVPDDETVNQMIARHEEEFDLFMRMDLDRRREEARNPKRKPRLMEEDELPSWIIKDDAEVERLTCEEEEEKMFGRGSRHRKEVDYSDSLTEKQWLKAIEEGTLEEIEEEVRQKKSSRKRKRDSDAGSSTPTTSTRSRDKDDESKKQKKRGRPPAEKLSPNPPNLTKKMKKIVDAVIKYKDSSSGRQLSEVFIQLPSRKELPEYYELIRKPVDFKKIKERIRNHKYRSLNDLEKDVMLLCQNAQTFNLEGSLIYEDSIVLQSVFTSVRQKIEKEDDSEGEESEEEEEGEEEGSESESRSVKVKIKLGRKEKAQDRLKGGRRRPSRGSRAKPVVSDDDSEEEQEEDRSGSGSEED
- assay-summary: SMARCA4 HiBiT degradation assay in HeLa cells
- Format: cell-based
- experimental-conditions: 18 hours, highest concentration 10 μM
Overview of reported Dmax across a group of compounds:

Known Dmax results, listed for orientation:
- O=C1CCC(N2Cc3ccc(N4CCN(Cc5ccc(O[C@@H]6C[C@@H]7CNc8nnc(-c9cc(F)cc(F)c9O)cc8N7C6)cc5C(F)(F)F)CC4)cc3C2=O)C(=O)N1 (stereo partly drawn): 50 to 75%
- O=C1CCC(N2Cc3ccc(N4CCN(Cc5ccc(O[C@@H]6C[C@@H]7CNc8nnc(-c9cc(F)cc(F)c9O)cc8N7C6)cc5OC(F)(F)F)CC4)cc3C2=O)C(=O)N1 (stereo partly drawn): < 50%
- O=C1CC[C@H](N2Cc3ccc(N4CCN(Cc5ccc(O[C@@H]6C[C@@H]7CNc8nnc(-c9cccc(Cl)c9O)cc8N7C6)cc5)CC4)cc3C2=O)C(=O)N1: > 75%
- CC[C@@]12CNc3nnc(-c4cccc(F)c4O)cc3N1C[C@H](Oc1nc(C)c(CN3CCN(c4ccc5c(c4)C(=O)N([C@H]4CCC(=O)NC4=O)C5)CC3)cc1C#N)C2: 50 to 75%

Q: Item under review: Cc1cc(O[C@H]2CN3c4cc(-c5cccc(F)c5O)nnc4NC[C@]3(C)C2)cnc1CN1CCN(c2ccc3c(c2)C(=O)N([C@H]2CCC(=O)NC2=O)C3)CC1 . Reported Dmax?
Ans: 50 to 75%

Q: Item under review: Cc1cc(O[C@H]2CN3c4cc(-c5cccc(F)c5O)nnc4NC[C@]3(C)C2)c(C)nc1CN1CCN(c2ccc3c(c2)C(=O)N([C@H]2CCC(=O)NC2=O)C3)CC1 . Reported Dmax?
Ans: 50 to 75%

Q: Item under review: Cc1cc(O[C@@H]2C[C@@H]3CNc4nnc(-c5cc(F)cc(F)c5O)cc4N3C2)cc(C)c1CN1CCN(c2ccc3c(c2)C(=O)N(C2CCC(=O)NC2=O)C3)CC1 (stereo partly drawn) . Reported Dmax?
Ans: < 50%

Q: Item under review: CC(C)c1cc(O[C@@H]2C[C@@H]3CNc4nnc(-c5cc(F)cc(F)c5O)cc4N3C2)ccc1CN1CCN(c2ccc3c(c2)C(=O)N(C2CCC(=O)NC2=O)C3)CC1 (stereo partly drawn) . Reported Dmax?
Ans: 50 to 75%

Q: Item under review: CC[C@@]12CNc3nnc(-c4cccc(F)c4O)cc3N1C[C@H](Sc1cc(C)c(CN3CCN(c4ccc5c(c4)C(=O)N([C@H]4CCC(=O)NC4=O)C5)CC3)cn1)C2 . Reported Dmax?
Ans: 50 to 75%

---

Overview of reported DC50 across a group of compounds:
- assayed-target: SMARCA4 (Homo sapiens)
- Construct: SMARCA4-HiBiT knock-in Hela monoclonal cell (CS3023226); host or cells: HeLa monoclonal cells with heterozygous HiBiT knock-in at the endogenous SMARCA4 locus
- assay-summary: SMARCA4 HiBiT degradation assay in HeLa cells
- Format: cell-based
- experimental-conditions: 18 hours, highest concentration 10 μM

Known DC50 results, listed for orientation:
• O=C1CCC(N2Cc3ccc(N4CCN(Cc5ccc(O[C@@H]6C[C@@H]7CNc8nnc(-c9cc(F)cc(F)c9O)cc8N7C6)cc5C(F)(F)F)CC4)cc3C2=O)C(=O)N1 (stereo partly drawn) [Example 15] = > 1000 nM
• Cc1cc(O[C@@H]2C[C@@H]3CNc4nnc(-c5cc(F)cc(F)c5O)cc4N3C2)ncc1CN1CCN(c2ccc3c(c2)C(=O)N([C@H]2CCC(=O)NC2=O)C3)CC1 [Example 28] = < 100 nM

// moving on: another record for DC50
Q: Missing value: DC50, SMARCA4 (Homo sapiens), entry Cc1cc(O[C@H]2CN3c4cc(-c5cccc(F)c5O)nnc4NC[C@]3(C)C2)c(C)nc1CN1CCN(c2ccc3c(c2)C(=O)N([C@H]2CCC(=O)NC2=O)C3)CC1 [Example 80] . Fill in?
Ans: < 100 nM

Numbers sourced from patent US20240165244A1.
